- tested-system: T1, CD3 epsilon homodimer protein (UniProt P07766 23-126)
- T1 construct: also called CD3 (CD3 epsilon)
- T1 sequence (P07766 23-126): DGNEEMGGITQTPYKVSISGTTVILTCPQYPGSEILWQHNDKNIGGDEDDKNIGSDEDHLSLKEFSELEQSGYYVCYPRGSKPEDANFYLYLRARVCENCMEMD
- assay-protocol: SPR Biacore T200, CD3e homodimer on chip, vs unaltered GLS3000 antibody
Would you mind telling me the reported ratio of amounts bound (Z=Y/X) of each entry?
Answers are plain numbers.

{"binder": "GLS3000 S27eT (antibody, name in Kabat numbering, V domains shown, one-arm IgG as m2) VH: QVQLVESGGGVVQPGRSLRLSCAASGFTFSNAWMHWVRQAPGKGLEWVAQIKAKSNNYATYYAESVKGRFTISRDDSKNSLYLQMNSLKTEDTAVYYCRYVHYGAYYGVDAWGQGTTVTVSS VL: DIVMTQSPLSLPVTPGEPASISCRSSQSLVHTNRNTYLHWYQQKPGQAPRLLIYKVSNRFSGVPDRFSGSGSGTDFTLKISRVEAEDVGVYYCGQGTQVPYTFGQGTKLEIK", "ratio of amounts bound (Z=Y/X)": 0.97}

Continue with the binder presented below.
Lookup: Look up ratio of amounts bound (Z=Y/X): GLS3000 R54A (antibody, name in Kabat numbering, V domains shown, one-arm IgG as m2) VH: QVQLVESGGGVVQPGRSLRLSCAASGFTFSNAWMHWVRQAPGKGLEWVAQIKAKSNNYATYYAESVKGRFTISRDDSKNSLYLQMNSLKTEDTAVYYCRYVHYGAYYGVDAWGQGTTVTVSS VL: DIVMTQSPLSLPVTPGEPASISCRSSQSLVHSNRNTYLHWYQQKPGQAPRLLIYKVSNAFSGVPDRFSGSGSGTDFTLKISRVEAEDVGVYYCGQGTQVPYTFGQGTKLEIK
Found: 0.69

Attribution: patent US20210388087A1
